system: transient receptor potential cation channel C4 beta (TRPC4), mouse; assay: TRPC4 cation channel opening, second retest – cell-based, second round, Fluo4, HEK293 TRPC4beta/mu-opioid, 1 µM, confirmation (AID 2461); conditions: Fluo4 calcium fluorescence, at 1 µM
Calls of active or inactive are those of the source.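 Rule for the calls: active = primary screen active and over 50% activation in each of two duplicate runs; inactive = the rest.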
The reply should be one of these categories: active, inactive

Here's what some known entries look like.
MOLECULE: Cc1ccccc1OCCNc1cc(N2CCNCC2)ccc1[N+](=O)[O-]
LABEL_VALUE: inactive

MOLECULE: Cc1cc(Nc2ccccc2O)c2ccccc2n1
LABEL_VALUE: inactive

MOLECULE: COc1ccc(C(=O)C2CCCN(Cc3ccc(Sc4nncn4C)o3)C2)cc1F (stereo not drawn)
LABEL_VALUE: active

Asked: Outcome? C=CCc1ccccc1OCC(O)CN1CCN(c2ccccc2OC)CC1 (stereo not drawn)
Given back: inactive

Asked: Outcome? Cc1nc(Cl)nc(N(C)c2ccccc2)c1[N+](=O)[O-]
Given back: inactive

Asked: Outcome? Cn1c(-c2ccc(F)cc2)cnc1NCc1ccc(F)cc1F
Given back: inactive

Asked: Outcome? O=[N+]([O-])c1cccc(CSc2nnc(Cc3ccccc3)n2-c2ccc(F)cc2)c1
Given back: inactive

Asked: Outcome? Cc1cc(C)c2c(=O)n(CC(=O)NCCCN3CCN(c4ccccc4F)CC3)sc2n1
Given back: inactive

Asked: Outcome? CCC(=O)Nc1cc(ON=C(C)C)cc([N+](=O)[O-])c1
Given back: inactive

Asked: Outcome? Cc1ccc(/C=N/NC(=S)NC2CCCCC2)o1
Given back: inactive

Asked: Outcome? CCc1c(C)nc2c(-c3ccccc3)c(C)nn2c1Nc1ccc(NC(C)=O)cc1
Given back: inactive

Asked: Outcome? Cc1ccc(C)c2c(N)c3c(nc12)CCCCC3 (tested in a mixture with another compound)
Given back: inactive

Asked: Outcome? CCC(=O)c1ccc(N2CCN(C(=O)c3ccccc3Br)CC2)c(F)c1
Given back: inactive

Asked: Outcome? Cc1c(CCOC(=O)CC23CC4CC(CC(C4)C2)C3)sc[n+]1Cc1ccccc1
Given back: inactive

Asked: Outcome? CNc1nc(NCc2ccccc2)c2ccccc2n1
Given back: inactive

Asked: Outcome? O=S(=O)(c1ccc(Oc2ccc(Br)cc2)cc1)N1CCOCC1
Given back: inactive

Asked: Outcome? CCCn1c(SCC(=O)N2c3ccccc3Sc3ccccc32)nc2c1c(=O)n(C)c(=O)n2C
Given back: inactive

====

tested on: TRPC4 beta (transient receptor potential cation channel C4), mouse; experiment: potentiation of DAMGO EC20 TRPC4 response – cell-based, Fluo-4, HEK293 TRPC4beta/mu-opioid, confirmation (AID 2555); settings: DAMGO EC20, Fluo-4 calcium flux, at 10 µM
Calls of active or inactive are those of the source.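 The calls were made as follows: active = primary screen hit whose calcium fluorescence ratio, in both repeats, exceeds the weak agonist control mean by 3 SD; inactive = the rest.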
The reply should be one of these categories: active, inactive

COMPOUND: C/C=C/Cn1c(SCCCc2ccccc2)nc2c1c(=O)[nH]c(=O)n2C
LABEL_VALUE: active

Asked: Outcome? Cc1ccc2nc(N(CCCN(C)C)C(=O)c3ccc(S(=O)(=O)N4CCc5ccccc5C4)cc3)sc2c1
Given back: inactive

Asked: Outcome? Cc1ccc(-c2nn(-c3ccccc3)cc2C(=O)Nc2ccc(C(=O)O)cc2)cc1
Given back: inactive

====

test system: TRPC4 beta (transient receptor potential cation channel C4), mouse; test: TRPC4 cation channel opening, retest – cell-based, Fluo4 calcium, HEK293 TRPC4beta/mu-opioid, duplicates, 10 µM, confirmation (AID 2426); details: Fluo4 calcium fluorescence, at 10 µM
The source made the active and inactive calls.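 The calls were made as follows: active = fluorescence ratio normalized to control raised more than 50% in primary screen plus both repeat runs; inactive = the rest.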
The reply should be one of these categories: y = active, n = inactive

Here's what some known entries look like.
COMPOUND: O=C(Cc1cccc2ccccc12)Nc1ccc(Br)cc1C(=O)O
LABEL_VALUE: n

COMPOUND: CCC(CC)c1nnc(NC(=O)c2c(C)nn(Cc3ccccc3Cl)c2C)s1
LABEL_VALUE: n

COMPOUND: C=CCc1cc(Cl)ccc1OCCCn1ccnc1
LABEL_VALUE: n

COMPOUND: COc1ccc(N=C2SCC(=O)N2Cc2ccccc2)cc1
LABEL_VALUE: n

COMPOUND: CCOC(=O)C1(CC2CC2)CCN(Cc2cnc(-c3ccccc3C)nc2)CC1
LABEL_VALUE: n

Asked: Outcome? C/C=C/Cn1c(SCCCc2ccccc2)nc2c1c(=O)[nH]c(=O)n2C
Given back: n

Asked: Outcome? COc1cc(/C=C2\C(=O)ON=C2c2ccccc2)cc(Cl)c1O
Given back: n

Asked: Outcome? O=C1/C(=C/c2ccccc2Cl)SC(=S)N1CCCC(=O)N(CCO)c1ccccc1
Given back: n

Asked: Outcome? CC(C)C1CC(CCNCc2ccc3c(c2)OCO3)(c2ccccc2)CCO1 (configuration not stated)
Given back: y

Asked: Outcome? CC1CCCCC1NS(=O)(=O)c1ccc(S(=O)(=O)N2CCCC2)cc1 (configuration not stated)
Given back: n

Asked: Outcome? CC(C)CN(C(=O)COC(=O)CCC(=O)c1ccc(Cl)cc1)c1c(N)n(Cc2ccccc2)c(=O)[nH]c1=O
Given back: n

Asked: Outcome? Cn1c(=O)n(CCCO)c(=O)c2c1nc1n2CCCN1Cc1ccccc1
Given back: n

Asked: Outcome? COC(=O)c1c(NC(=O)CSc2ncn[nH]2)sc(C)c1C
Given back: n

Asked: Outcome? Cc1ccc(NC(=O)c2cc(N3C(=O)C=CC3=O)ccc2N2CCOCC2)cc1
Given back: n

Asked: Outcome? CCOC(=O)c1c(N)sc(C(O)(C(F)(F)F)C(F)(F)F)c1-c1ccccc1
Given back: n

Asked: Outcome? CC1(C)CC(=O)C(C=NCCN2CCN(C(=O)CCl)CC2)=C(O)C1
Given back: n

Asked: Outcome? COc1ccc(C(CNC(=O)c2oc3ccc(Cl)cc3c2C)N2CCCCC2)cc1 (configuration not stated)
Given back: n
